# collection of MIC values tested on Candida tropicalis

[
  {
    "molecule": "COc1ccc(OC)c(/C=C/C(=O)c2ccno2)c1",
    "measurement target": "Candida tropicalis",
    "units text": "µg/mL",
    "MIC": 64
  },
  {
    "molecule": "COc1cc(OC)cc(C2CC(c3ccno3)=NN2C(N)=O)c1 (stereo not shown)",
    "measurement target": "Candida tropicalis",
    "units text": "µg/mL",
    "MIC": 64
  },
  {
    "molecule": "COc1cccc(OC)c1/C=C/C(=O)c1ccno1",
    "measurement target": "Candida tropicalis",
    "units text": "µg/mL",
    "MIC": 4
  },
  {
    "molecule": "COc1ccc(C2CC(c3ccno3)=NN2C(N)=O)cc1 (stereo not shown)",
    "measurement target": "Candida tropicalis",
    "units text": "µg/mL",
    "MIC": 4
  },
  {
    "molecule": "COc1cccc(OC)c1C1CC(c2ccno2)=NN1C(N)=O (stereo not shown)",
    "measurement target": "Candida tropicalis",
    "units text": "µg/mL",
    "MIC": 2
  },
  {
    "molecule": "COc1ccc(C2CC(c3ccno3)=NN2C(N)=O)c(OC)c1OC (stereo not shown)",
    "measurement target": "Candida tropicalis",
    "units text": "µg/mL",
    "MIC": 64
  },
  {
    "molecule": "COc1ccccc1C1CC(c2ccno2)=NN1C(N)=O (stereo not shown)",
    "measurement target": "Candida tropicalis",
    "units text": "µg/mL",
    "MIC": 8
  },
  {
    "molecule": "COc1cc(/C=C/C(=O)c2ccno2)cc(OC)c1",
    "measurement target": "Candida tropicalis",
    "units text": "µg/mL",
    "MIC": 512
  },
  {
    "molecule": "COc1ccc(C2CC(c3ccno3)=NN2C(N)=O)c(F)c1OC (stereo not shown)",
    "measurement target": "Candida tropicalis",
    "units text": "µg/mL",
    "MIC": 1
  },
  {
    "molecule": "COc1cc(Cl)c(C2CC(c3ccno3)=NN2C(N)=O)c(OC)c1 (stereo not shown)",
    "measurement target": "Candida tropicalis",
    "units text": "µg/mL",
    "MIC": 0.5
  },
  {
    "molecule": "COc1cc(/C=C/C(=O)c2ccno2)cc(OC)c1OC",
    "measurement target": "Candida tropicalis",
    "units text": "µg/mL",
    "MIC": 256
  },
  {
    "molecule": "COc1cccc(/C=C/C(=O)c2ccno2)c1OC",
    "measurement target": "Candida tropicalis",
    "units text": "µg/mL",
    "MIC": 32
  },
  {
    "molecule": "COc1cc(OC)c(C2CC(c3ccno3)=NN2C(N)=O)cc1OC (stereo not shown)",
    "measurement target": "Candida tropicalis",
    "units text": "µg/mL",
    "MIC": 16
  },
  {
    "molecule": "COc1cccc(C2CC(c3ccno3)=NN2C(N)=O)c1 (stereo not shown)",
    "measurement target": "Candida tropicalis",
    "units text": "µg/mL",
    "MIC": 64
  },
  {
    "molecule": "COc1ccc(/C=C/C(=O)c2ccno2)cc1",
    "measurement target": "Candida tropicalis",
    "units text": "µg/mL",
    "MIC": 8
  },
  {
    "molecule": "COc1ccc(/C=C/C(=O)c2ccno2)c(OC)c1OC",
    "measurement target": "Candida tropicalis",
    "units text": "µg/mL",
    "MIC": 128
  },
  {
    "molecule": "COc1cc(OC)c(OC)cc1/C=C/C(=O)c1ccno1",
    "measurement target": "Candida tropicalis",
    "units text": "µg/mL",
    "MIC": 32
  },
  {
    "molecule": "COc1ccc(OC)c(C2CC(c3ccno3)=NN2C(N)=O)c1 (stereo not shown)",
    "measurement target": "Candida tropicalis",
    "units text": "µg/mL",
    "MIC": 32
  },
  {
    "molecule": "COc1ccc(/C=C/C(=O)c2ccno2)c(F)c1OC",
    "measurement target": "Candida tropicalis",
    "units text": "µg/mL",
    "MIC": 16
  },
  {
    "molecule": "COc1cc(Cl)c(/C=C/C(=O)c2ccno2)c(OC)c1",
    "measurement target": "Candida tropicalis",
    "units text": "µg/mL",
    "MIC": 4
  },
  {
    "molecule": "COc1cccc(C2CC(c3ccno3)=NN2C(N)=O)c1OC (stereo not shown)",
    "measurement target": "Candida tropicalis",
    "units text": "µg/mL",
    "MIC": 16
  },
  {
    "molecule": "COc1cccc(/C=C/C(=O)c2ccno2)c1",
    "measurement target": "Candida tropicalis",
    "units text": "µg/mL",
    "MIC": 256
  },
  {
    "molecule": "COc1ccccc1/C=C/C(=O)c1ccno1",
    "measurement target": "Candida tropicalis",
    "units text": "µg/mL",
    "MIC": 16
  },
  {
    "molecule": "COc1ccc(C2CC(c3ccno3)=NN2C(N)=O)cc1OC (stereo not shown)",
    "measurement target": "Candida tropicalis",
    "units text": "µg/mL",
    "MIC": 32
  },
  {
    "molecule": "COc1cc(OC)c(/C=C/C(=O)c2ccno2)c(OC)c1",
    "measurement target": "Candida tropicalis",
    "units text": "µg/mL",
    "MIC": 2
  },
  {
    "molecule": "COc1cc(OC)c(C2CC(c3ccno3)=NN2C(N)=O)c(OC)c1 (stereo not shown)",
    "measurement target": "Candida tropicalis",
    "units text": "µg/mL",
    "MIC": 2
  },
  {
    "molecule": "COc1ccc(C2CC(c3ccno3)=NN2C(N)=O)c(OC)c1 (stereo not shown)",
    "measurement target": "Candida tropicalis",
    "units text": "µg/mL",
    "MIC": 8
  },
  {
    "molecule": "COc1ccc(/C=C/C(=O)c2ccno2)cc1OC",
    "measurement target": "Candida tropicalis",
    "units text": "µg/mL",
    "MIC": 64
  },
  {
    "molecule": "OC(Cn1cncn1)(Cn1cncn1)c1ccc(F)cc1F [Fluconazole, reference compound]",
    "measurement target": "Candida tropicalis",
    "units text": "µg/mL",
    "MIC": 1
  },
  {
    "molecule": "COc1cc(C2CC(c3ccno3)=NN2C(N)=O)cc(OC)c1OC (stereo not shown)",
    "measurement target": "Candida tropicalis",
    "units text": "µg/mL",
    "MIC": 16
  },
  {
    "molecule": "COc1ccc(/C=C/C(=O)c2ccno2)c(OC)c1",
    "measurement target": "Candida tropicalis",
    "units text": "µg/mL",
    "MIC": 16
  }
]

Where do the numbers come from? From paper PMC7179112.
